# Test system: HCT-116
# TEST: Antiproliferative activity against human HCT116 cells after 48 hrs by MTT assay
# Type: functional, cell-based
# SETTINGS: HCT-116, 48 h
REPORTED METRIC: pIC50
For clarity, pIC50 is expressed as the negative log10 of concentration in mol/L.

[[record]]
compound_structure_string = "CCCCCCCCCCCCC/C=C/[C@@H](O)[C@H](CO[C@H]1O[C@H](CO[C@]2(C(=O)O)C[C@H](O)[C@@H](NC(C)=O)[C@H]([C@H](O)[C@H](O)CO)O2)[C@@H](O)[C@H](O)[C@@H]1O)NC(=O)CCCCCCCCCCCCCCCCC"
test_result = 4.19

[[record]]
compound_structure_string = "CCCCCCCCCCCCC/C=C/[C@@H](O)[C@@H](N)CO[C@H]1O[C@H](CO[C@]2(C(=O)O)C[C@H](O)[C@@H](NC(C)=O)[C@H]([C@H](O)[C@H](O)CO)O2)[C@@H](O)[C@H](O)[C@@H]1O"
test_result = 3.74

[[record]]
compound_structure_string = "CCCCCCCCCCCCC/C=C/[C@@H](O)[C@H](CO[C@@H]1O[C@H](CO[C@]2(C(=O)O)C[C@H](O)[C@@H](NC(C)=O)[C@H]([C@H](O)[C@H](O)CO)O2)[C@H](O)[C@H](O)[C@H]1O)NC(=O)CCCCCCCCCCCCCCCCC"
test_result = 4.06


Next up:
Ask: Return reported pIC50; argument: CCCCCCCCCCCCC/C=C/[C@@H](O)[C@@H](N)CO[C@@H]1O[C@H](CO[C@]2(C(=O)O)C[C@H](O)[C@@H](NC(C)=O)[C@H]([C@H](O)[C@H](O)CO)O2)[C@H](O)[C@H](O)[C@H]1O
Result: 3.89

---

# System: HCCLM3
# TEST: Antimigratory activity against human HCCLM3 cells at 50 uM after 48 hrs by wound healing assay
# Format: functional, cell-based
The source made the active and inactive calls. No cut-off for these calls is given here.
Hello, when you answer, please use one of the following outcomes: y (active), n (inactive)

A selection of reference data follows.
[[record]]
compound_structure_string = "CCCCCCCCCCCCC/C=C/[C@@H](O)[C@@H](N)CO[C@H]1O[C@H](CO[C@]2(C(=O)O)C[C@H](O)[C@@H](NC(C)=O)[C@H]([C@H](O)[C@H](O)CO)O2)[C@@H](O)[C@H](O)[C@@H]1O"
assigned_category = "y"

[[record]]
compound_structure_string = "CCCCCCCCCCCCC/C=C/[C@@H](O)[C@H](CO[C@H]1O[C@H](CO[C@]2(C(=O)O)C[C@H](O)[C@@H](NC(C)=O)[C@H]([C@H](O)[C@H](O)CO)O2)[C@@H](O)[C@H](O)[C@@H]1O)NC(=O)CCCCCCCCCCCCCCCCC"
assigned_category = "n"

[[record]]
compound_structure_string = "CCCCCCCCCCCCC/C=C/[C@@H](O)[C@@H](N)CO[C@@H]1O[C@H](CO[C@]2(C(=O)O)C[C@H](O)[C@@H](NC(C)=O)[C@H]([C@H](O)[C@H](O)CO)O2)[C@H](O)[C@H](O)[C@H]1O"
assigned_category = "y"


Ask: Could you check what this test reported for CCCCCCCCCCCCC/C=C/[C@@H](O)[C@H](CO[C@@H]1O[C@H](CO[C@]2(C(=O)O)C[C@H](O)[C@@H](NC(C)=O)[C@H]([C@H](O)[C@H](O)CO)O2)[C@H](O)[C@H](O)[C@H]1O)NC(=O)CCCCCCCCCCCCCCCCC ?
Result: n
